Each entry below carries its recorded BI.
System: 266 human PDZ domains (PDZome)
Assay: Holdup assay (chromatographic retention, PDZome-binding profile, BI)
Set-up: key: binding intensity: 0.00 = no binding, 1.00 = maximal binding
Settings: PDZ domain NHERF4-1
*1 amine or outer side, *2 acyl side, *3 side chain or, on linkers, in order; H or OH if unused. Where a SMILES comes first, the peptide text is derived from it. The star is where a group is joined. X1 = O=C(CCCC[C@@H]1SC[C@@H]2NC(=O)N[C@@H]21)NCCCOCCOCCOCCCN*; Suc = O=C(CCC(=O)[*:2])[*:1]
# respond with the number and nothing more

CC[C@H](C)[C@H](NC(=O)[C@H](CCC(N)=O)NC(=O)[C@@H](NC(=O)[C@H](Cc1c[nH]cn1)NC(=O)[C@H](CCC(N)=O)NC(=O)[C@H](CC(=O)O)NC(=O)[C@H](CCC(=O)O)NC(=O)[C@H](CC(=O)O)NC(=O)[C@H](Cc1ccccc1)NC(=O)[C@@H]1CCCN1C(=O)CCC(=O)NCCCOCCOCCOCCCNC(=O)CCCC[C@@H]1SC[C@@H]2NC(=O)N[C@@H]21)[C@@H](C)O)C(=O)N[C@H](C(=O)N[C@@H](CCCCN)C(=O)N[C@H](C(=O)O)C(C)C)[C@@H](C)O [PTEN_13] ({X1-Suc}-PFDEDQHTQITKV-OH) : 0.09
CC[C@H](C)[C@H](NC(=O)[C@H](CCC(N)=O)NC(=O)[C@@H](NC(=O)[C@H](Cc1c[nH]cn1)NC(=O)[C@H](CCC(N)=O)NC(=O)[C@H](CC(=O)O)NC(=O)[C@H](CCC(=O)O)NC(=O)[C@H](CC(=O)O)NC(=O)CCC(=O)NCCCOCCOCCOCCCNC(=O)CCCC[C@@H]1SC[C@@H]2NC(=O)N[C@@H]21)[C@@H](C)O)C(=O)N[C@H](C(=O)N[C@@H](CCCCN)C(=O)N[C@H](C(=O)O)C(C)C)[C@@H](C)O [PTEN_11] : -0.04

# evaluate next
Exercise: Can you look up the measured BI of CC[C@H](C)[C@H](NC(=O)[C@H](CCC(N)=O)NC(=O)[C@@H](NC(=O)[C@H](Cc1c[nH]cn1)NC(=O)[C@H](CCC(N)=O)NC(=O)[C@H](CC(=O)O)NC(=O)[C@H](CCC(=O)O)NC(=O)[C@H](CC(=O)O)NC(=O)CCC(=O)NCCCOCCOCCOCCCNC(=O)CCCC[C@@H]1SC[C@@H]2NC(=O)N[C@@H]21)[C@@H](C)O)C(=O)N[C@H](C(=O)N[C@@H](CCCCNC(C)=O)C(=O)N[C@H](C(=O)O)C(C)C)[C@@H](C)O [PTEN_Ac] for me?
Key: -0.007

----------
Each entry below carries its recorded BI.
Target: GOPC-1 (Homo sapiens, UniProt Q9HD26)
Assay: Holdup assay, GOPC-1
Assay type: binding
*1 amine or outer side, *2 acyl side, *3 side chain or, on linkers, in order; H or OH if unused. Where a SMILES comes first, the peptide text is derived from it. The star is where a group is joined. X1 = O=C(CCCC[C@@H]1SC[C@@H]2NC(=O)N[C@@H]21)NCCCOCCOCCOCCCN*; Suc = O=C(CCC(=O)[*:2])[*:1]
# respond with the number and nothing more

Exercise: Can you look up the measured BI of CC[C@H](C)[C@H](NC(=O)[C@H](CCC(N)=O)NC(=O)[C@@H](NC(=O)[C@H](Cc1c[nH]cn1)NC(=O)[C@H](CCC(N)=O)NC(=O)[C@H](CC(=O)O)NC(=O)[C@H](CCC(=O)O)NC(=O)[C@H](CC(=O)O)NC(=O)CCC(=O)NCCCOCCOCCOCCCNC(=O)CCCC[C@@H]1SC[C@@H]2NC(=O)N[C@@H]21)[C@@H](C)O)C(=O)N[C@H](C(=O)N[C@@H](CCCCN)C(=O)N[C@H](C(=O)O)C(C)C)[C@@H](C)O for me?
Key: 0.26

Exercise: Can you look up the measured BI of CC[C@H](C)[C@H](NC(=O)[C@H](CCC(N)=O)NC(=O)[C@@H](NC(=O)[C@H](Cc1c[nH]cn1)NC(=O)[C@H](CCC(N)=O)NC(=O)[C@H](CC(=O)O)NC(=O)[C@H](CCC(=O)O)NC(=O)[C@H](CC(=O)O)NC(=O)CCC(=O)NCCCOCCOCCOCCCNC(=O)CCCC[C@@H]1SC[C@@H]2NC(=O)N[C@@H]21)[C@@H](C)O)C(=O)N[C@H](C(=O)N[C@@H](CCCCNC(C)=O)C(=O)N[C@H](C(=O)O)C(C)C)[C@@H](C)O for me?
Key: 0.404

Exercise: Can you look up the measured BI of CC[C@H](C)[C@H](NC(=O)[C@H](CCC(N)=O)NC(=O)[C@@H](NC(=O)[C@H](Cc1c[nH]cn1)NC(=O)[C@H](CCC(N)=O)NC(=O)[C@H](CC(=O)O)NC(=O)[C@H](CCC(=O)O)NC(=O)[C@H](CC(=O)O)NC(=O)CCC(=O)NCCCOCCOCCOCCCNC(=O)CCCC[C@@H]1SC[C@@H]2NC(=O)N[C@@H]21)[C@@H](C)O)C(=O)N[C@H](C(=O)N[C@@H](CCCNC(=N)N)C(=O)N[C@H](C(=O)O)C(C)C)[C@@H](C)O [PTEN_KR] ({X1-Suc}-DEDQHTQITRV-OH) for me?
Key: 0.45

Exercise: Can you look up the measured BI of CC[C@H](C)[C@H](NC(=O)[C@H](CCC(N)=O)NC(=O)[C@@H](NC(=O)[C@H](Cc1c[nH]cn1)NC(=O)[C@H](CCC(N)=O)NC(=O)[C@H](CC(=O)O)NC(=O)[C@H](CCC(=O)O)NC(=O)[C@H](CC(=O)O)NC(=O)[C@H](Cc1ccccc1)NC(=O)[C@@H]1CCCN1C(=O)CCC(=O)NCCCOCCOCCOCCCNC(=O)CCCC[C@@H]1SC[C@@H]2NC(=O)N[C@@H]21)[C@@H](C)O)C(=O)N[C@H](C(=O)N[C@@H](CCCCN)C(=O)N[C@H](C(=O)O)C(C)C)[C@@H](C)O [PTEN_13] ({X1-Suc}-PFDEDQHTQITKV-OH) for me?
Key: 0.199
